- measurement-target: recombinant human Myt1 (full length PKMYT1) (Homo sapiens (Human), UniProt Q99640)
- Sequence (Q99640 whole entry): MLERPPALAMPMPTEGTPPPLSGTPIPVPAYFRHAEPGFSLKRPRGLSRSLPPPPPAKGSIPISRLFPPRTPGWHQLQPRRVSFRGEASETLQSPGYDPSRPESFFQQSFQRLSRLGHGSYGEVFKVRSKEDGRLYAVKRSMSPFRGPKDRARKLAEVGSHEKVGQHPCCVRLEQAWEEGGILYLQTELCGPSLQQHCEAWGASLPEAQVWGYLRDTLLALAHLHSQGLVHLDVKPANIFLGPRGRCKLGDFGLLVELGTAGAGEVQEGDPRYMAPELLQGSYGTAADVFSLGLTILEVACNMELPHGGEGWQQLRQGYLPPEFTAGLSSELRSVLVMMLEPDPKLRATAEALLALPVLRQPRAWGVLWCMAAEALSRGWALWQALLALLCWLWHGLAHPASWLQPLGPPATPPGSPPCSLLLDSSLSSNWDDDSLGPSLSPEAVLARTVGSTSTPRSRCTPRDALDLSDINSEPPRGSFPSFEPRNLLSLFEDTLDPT
- experiment: Recombinant human Myt1 kinase assay (ADP-Glo)
- assay-context: 10 μM ATP
measurement-type: IC50

Use the examples below as a reference point.
{"compound": "Cc1ccc(O)c(C)c1-c1cc(-c2nccs2)nc(C(N)=O)c1N [Compound 13]", "measurement-target": "recombinant human Myt1 (full length PKMYT1) (Homo sapiens (Human), UniProt Q99640)", "IC50": "< 3.5 nM"}
{"compound": "NC(=O)c1nc(-c2ccnnc2)cc(-c2c(Cl)ccc3[nH]ncc23)c1N [Compound 106]", "measurement-target": "recombinant human Myt1 (full length PKMYT1) (Homo sapiens (Human), UniProt Q99640)", "IC50": "28 nM"}

Please find the next compound below.
// query Form field: reported IC50 of Cc1ccc2[nH]ncc2c1-c1nc(-c2cc(F)c(F)cc2NC2CN(C(=O)OC(C)(C)C)C2)nc(C(N)=O)c1N [Compound 479]
// result > 2000 nM

###

- measurement-target: recombinant human Myt1 (full length PKMYT1) (Homo sapiens (Human))
- experiment: Recombinant human Myt1 kinase assay (ADP-Glo)
- assay-context: 10 μM ATP
measurement-type: IC50 (nM)

Use the examples below as a reference point.
{"compound": "Cc1ccc2[nH]ncc2c1-c1cc(-c2ccnc(OCc3cc4ccccc4o3)n2)nc(C(N)=O)c1N", "IC50 (nM)": 754}
{"compound": "Cc1ccc2[nH]ncc2c1-c1cc(-c2cccc(OCC3COC3)n2)nc(C(N)=O)c1N", "IC50 (nM)": 9}
{"compound": "Cc1ccc2[nH]ncc2c1-c1cc(-c2cccc(OCc3cccnn3)n2)nc(C(N)=O)c1N [Compound 242]", "IC50 (nM)": 7}
{"compound": "Cc1ccc2[nH]ncc2c1-c1cc(-c2cccc(N[C@@H](CO)c3ccccc3)n2)nc(C(N)=O)c1N", "IC50 (nM)": 141}
{"compound": "COCC(COC)Oc1nccc(-c2cc(-c3c(C)ccc4[nH]ncc34)c(N)c(C(N)=O)n2)n1", "IC50 (nM)": 9}
{"compound": "Cc1ccc2[nH]ncc2c1-c1nc(-c2cc(F)ccc2Nc2ncccn2)nc(C(N)=O)c1N", "IC50 (nM)": 6}
{"compound": "Cc1ccc2[nH]ncc2c1-c1cc(-c2cccc(OC[C@H]3CCCN3)n2)nc(C(N)=O)c1N (atropisomer, axis not shown) [Compound 387]", "IC50 (nM)": 640}
{"compound": "Cc1ccc2[nH]ncc2c1-c1cc(-c2cccc(OC[C@H]3CCCN3)n2)nc(C(N)=O)c1N [Compound 374]", "IC50 (nM)": 14}

(I) Cc1ccc2[nH]ncc2c1-c1cc(-c2cccc(OCc3nccn3C)n2)nc(C(N)=O)c1N
(II) Cc1ccc2[nH]ncc2c1-c1cc(-c2ccnc(Nc3ccncc3)n2)nc(C(N)=O)c1N
// query Decide: I or II , by lowest recorded IC50. Field: selected label. Fill in the label of the entry you choose.
// result I
(I: 5 nM, II: 11 nM)

(I) Cc1ccc(O)c(C)c1-c1cc(-c2nccs2)cc(C(N)=O)c1N
(II) COCC(=O)c1ccccc1-c1nc(C(N)=O)c(N)c(-c2c(C)ccc3[nH]ncc23)n1
// query Decide: I or II , by lowest recorded IC50. Field: selected label. Fill in the label of the entry you choose.
// result I
(I: 5 nM, II: 266 nM)

(P) Cc1cncnc1Nc1cc(F)ccc1-c1nc(C(N)=O)c(N)c(-c2c(C)ccc3[nH]ncc23)n1
(Q) Cc1ccc(O)cc1-c1c(N)c(C(N)=O)nc2ccccc12
// query Of the two listed items, which has the higher IC50? First: P Second: Q Field: selected label. Fill in the label of the entry you choose.
// result Q
(Q: 202 nM, P: 4 nM)
